test system: NCI-H460 lung
Pick one and only one: y (active), n (inactive)

For CN1CCC2(CC1)N=C(SCC(=O)Nc1cnc3ccccc3c1)C(c1ccc(Br)cc1)=N2 , what call appears in the results of this test? n

For O=S(=O)(NC1=NCCN1C(=S)SN1CCn2c1nsc2=S)c1ccc(Oc2ccccc2)cc1 , what call appears in the results of this test? n

For CCc1nc(C)cn1C(=O)OCc1nc2nc(Cl)nc(N3CCOCC3)c2[nH]1 , what call appears in the results of this test? n

For C[C@@H](Nc1cc(F)cc(F)c1)c1cc(C(=O)N(C)C)cc2c(=O)cc(N3CCOCC3)oc12 , what call appears in the results of this test? n

For O=C(Nc1ccncc1)C(=O)c1cn(S(=O)(=O)c2cccc(Cl)c2)c2ccccc12 , what call appears in the results of this test? n

For CC(=O)[CH-]C(=O)c1ccccc1.CC(=O)[CH-]C(=O)c1ccccc1.Cl.[O-]c1ccnc2ccccc12.[O-]c1ccnc2ccccc12.[Ti+4] , what call appears in the results of this test? n

For CC[C@@H](C)/C=C(C)/C=C/C(=O)c1c(O)c(-c2ccc(OC(=O)[C@@]34CC[C@@](C)(C(=O)O3)C4(C)C)cc2)cn(O)c1=O , what call appears in the results of this test? n

For CCCCC(=O)N(c1ccc(Nc2c3ccccc3nc3cc([N+](=O)[O-])ccc23)cc1)S(C)(=O)=O , what call appears in the results of this test? y

Value source: PubChem BioAssay (NCI)
